# test system: AgHof1
# experiment: SPOT peptide array binding signal intensity (averaged, normalized) (arbitrary units (background-subtracted, floor 0; scale differs between SH3 domains)); higher = stronger binding of the SH3 domain to the peptide
Assign class by SPOT peptide array binding signal intensity: not lower than 60 means yes; lower than 60 means no.

NQARKPFLLPATELS | no
NFLRLLIGLPSQNEL | no
VPKEPAPAPPPEPDM | no

hey, is SPOT peptide array binding signal intensity for this one >= 60? `KIRRSSLMIPNPQQF`
no

hey, is SPOT peptide array binding signal intensity for this one >= 60? `APERAVPILPPRNNV`
no

hey, is SPOT peptide array binding signal intensity for this one >= 60? `RLPAPPPPPRRGPAP`
yes

hey, is SPOT peptide array binding signal intensity for this one >= 60? `AATTSTPPLPRRRAT`
yes
